target_desc: aspartate receptor QEQE (wild type) receptor–kinase signaling complex (Salmonella typhimurium)
assay_details: in vitro receptor-coupled kinase assay, attractant titration, QEQE
measured_parameter: pIC50
pIC50 (log units): -log10 of the concentration in mol/L.

Task: // returns reported pIC50 for input CC(N)(CC(=O)O)C(=O)O (racemic) [α-methyl-aspartate, α-methyl-D,L-aspartate]
Result: 4.64

----------
target_desc: aspartate receptor QEQQ receptor–kinase signaling complex (Salmonella typhimurium, UniProt P02941, E491Q)
assay_details: in vitro receptor-coupled kinase assay, attractant titration, QEQQ receptor
measured_parameter: IC50 (µM)
Quick reminder: number only, in µM, skip the unit.

Task: // returns reported IC50 for input CC(N)(CC(=O)O)C(=O)O (racemic) [α-methyl-aspartate, α-methyl-D,L-aspartate]
Result: 62
